EXPERIMENTAL_TARGET: IRAK4 (Homo sapiens)
Construct: endogenous in cells; host or cells: THP-1 cells
ASSAY_INFO: LVL THP1 HTRF (THP1 Homogeneous Time Resolved Fluorescence)
Format: cell-based
CONDITION_DETAILS: THP1 cells, 18 h incubation with compound, read-out: LVL THP1 HTRF EC50
The label satisfied is reserved for DC50 strictly under 30 nM; not satisfied covers values equal to or above it.

# example entries with known answers
Query: I'd appreciate it if you could check whether `C[C@H](C#N)Nc1cc(-n2ncc3cc(C#N)c(N)nc32)ncc1C(=O)N[C@H]1CC[C@H](CCN2CCN(c3ccc([C@@]4(C)CCC(=O)NC4=O)cc3)[C@@H](C)C2)CC1` has DC50 smaller than 30 nM.
Response: satisfied

Query: I'd appreciate it if you could check whether C[C@H](C#N)Nc1cc(-n2ccc3cnc(N)nc32)ncc1C(=O)N[C@H]1CC[C@H](CCN2CCN(c3ccc(C4CCC(=O)NC4=O)cc3)CC2)CC1 (stereo partly shown) has DC50 smaller than 30 nM.
Response: satisfied

Query: I'd appreciate it if you could check whether C[C@H](C#N)Nc1cc(-n2ncc3cc(C#N)c(N)nc32)ncc1-n1cc([C@H]2CC[C@H](CCN3CCN(c4cnc([C@@]5(C)CCC(=O)NC5=O)nc4)CC3)CC2)nn1 (single isomer, unassigned) [P-264] has DC50 smaller than 30 nM.
Response: satisfied

***
Query: I'd appreciate it if you could check whether C[C@H](C#N)Nc1cc(-n2ncc3cc(C#N)c(N)nc32)ncc1-n1cc([C@H]2CC[C@H](CCN3CCC(c4ccc(C5CCC(=O)NC5=O)cc4)CC3)CC2)nn1 (stereo partly shown) has DC50 smaller than 30 nM.
Response: satisfied

Query: I'd appreciate it if you could check whether C[C@H](C#N)Nc1cc(-n2ncc3cc(C#N)c(N)nc32)ncc1-n1cc([C@H]2CC[C@H](CCN3CCC(c4ccc([C@@]5(F)CCC(=O)NC5=O)cc4)CC3)CC2)nn1 (single isomer, unassigned) [P-318] has DC50 smaller than 30 nM.
Response: not satisfied

Query: I'd appreciate it if you could check whether C[C@H](C#N)Nc1cc(Nc2ncc(C#N)cc2F)ncc1-n1cc([C@H]2CC[C@H](CCN3CC[C@H]4[C@@H]3CCN4c3ccc(N4CCC(=O)NC4=O)cc3)CC2)nn1 (single isomer, unassigned) has DC50 smaller than 30 nM.
Response: not satisfied

Query: I'd appreciate it if you could check whether CC(C#N)Nc1cc(-n2ncc3cc(C#N)cnc32)ncc1-n1cc(C23CCC(CCN4CCN(c5ccc(C6CCC(=O)NC6=O)cc5)CC4)(CC2)CC3)nn1 (stereo not shown) has DC50 smaller than 30 nM.
Response: satisfied

Query: I'd appreciate it if you could check whether C[C@H](C#N)Nc1cc(-n2ncc3cc(C#N)cnc32)ncc1C(=O)N[C@H]1CC[C@H](CCN2CCN(c3ccc([C@@]4(C)CCC(=O)NC4=O)cn3)[C@@H](C)C2)CC1 (single isomer, unassigned) has DC50 smaller than 30 nM.
Response: satisfied

Query: I'd appreciate it if you could check whether `C[C@H](C#N)Nc1cc(-n2ncc3cc(C#N)c(N)nc32)ncc1-n1cc([C@H]2CC[C@H](CCN3CCN(c4ccc([C@@]5(C)CCC(=O)NC5=O)cc4)CC3)CC2)nn1` has DC50 smaller than 30 nM.
Response: satisfied

---

ASSAY_INFO: Pharmacokinetic studies in mice (plasma PK, IV and PO)
Type: in vivo
CONDITION_DETAILS: mouse; female C57B16 mice, plasma, PO 3.00 mg/kg
Method: Due to the higher molecular weight and lipophilicity, targeted protein degraders generally occupy a physiochemical property space that is beyond Lipinski's rule of 5 and as consequence are expected to have poor oral bioavailability and overall pharmacokinetic properties. […] The concentrations of test article in these samples were measured using reverse-phase LC-MS-MS and then plotted as a function of time. […]
RESULT_TYPE: Tmax (min)
One number for each entry, in min.

Query: # Tmax lookup, item `CC[C@@H]1CN(CC[C@H]2CC[C@H](c3cn(-c4cnc(-n5ncc6cc(C#N)cnc65)cc4N[C@H](C)C#N)nn3)CC2)CCN1c1ccc(N2CCC(=O)NC2=O)cn1`
Response: 15

---

ASSAY_INFO: Pharmacokinetic studies in mice (plasma PK, IV and PO)
Type: in vivo
CONDITION_DETAILS: mouse; female C57B16 mice, plasma, PO 3.00 mg/kg
RESULT_TYPE: Cmax (nM)
Numbers only, in nM.

Query: # Cmax lookup, item `CC[C@@H]1CN(CC[C@H]2CC[C@H](c3cn(-c4cnc(-n5ncc6cc(C#N)cnc65)cc4N[C@H](C)C#N)nn3)CC2)CCN1c1ccc(N2CCC(=O)NC2=O)cn1`
Response: 559

---

EXPERIMENTAL_TARGET: IRAK4 (Homo sapiens, UniProt Q9NWZ3)
Construct: endogenous in cells; host or cells: THP-1 cells
Sequence (Q9NWZ3 whole entry): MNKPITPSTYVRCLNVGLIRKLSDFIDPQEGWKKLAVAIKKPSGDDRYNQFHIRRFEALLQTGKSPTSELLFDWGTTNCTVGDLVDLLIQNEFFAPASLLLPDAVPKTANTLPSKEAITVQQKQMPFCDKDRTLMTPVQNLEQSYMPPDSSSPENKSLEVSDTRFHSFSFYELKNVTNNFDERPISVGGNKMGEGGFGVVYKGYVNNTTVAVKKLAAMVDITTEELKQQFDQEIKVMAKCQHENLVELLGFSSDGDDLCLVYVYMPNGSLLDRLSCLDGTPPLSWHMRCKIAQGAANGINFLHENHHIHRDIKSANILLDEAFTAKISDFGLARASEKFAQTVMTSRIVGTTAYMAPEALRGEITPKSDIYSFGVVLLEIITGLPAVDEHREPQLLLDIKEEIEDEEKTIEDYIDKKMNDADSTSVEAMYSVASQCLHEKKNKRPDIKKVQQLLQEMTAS
ASSAY_INFO: LVL THP1 HTRF (THP1 Homogeneous Time Resolved Fluorescence)
Assay type: cell-based
CONDITION_DETAILS: THP1 cells, 18 h incubation with compound
Where a name gives a salt, the structure may show the parent alone.
RESULT_TYPE: LVL THP1 HTRF YMIN (%)
Give bare numbers, in %.

A selection of reference data follows.
Query: # LVL THP1 HTRF YMIN lookup, item C[C@H](C#N)Nc1cc(-n2ncc3cc(C#N)cnc32)ncc1C(=O)N[C@H]1CC[C@H](CCN2CC[C@H]3[C@@H]2CCN3c2ccc([C@@]3(C)CCC(=O)NC3=O)cc2)CC1 (single isomer, unassigned) [P-492]
Response: −0.2

Query: # LVL THP1 HTRF YMIN lookup, item `C[C@H](C#N)Nc1cc(-n2ncc3cc(C#N)cnc32)ncc1-n1cc([C@H]2CC[C@H](CCN3CC4(CC(c5ccc(N6CCC(=O)NC6=O)cc5)C4)C3)CC2)nn1`
Response: 2.6

Query: # LVL THP1 HTRF YMIN lookup, item C[C@H](C#N)Nc1cc(-n2ncc3cc(C#N)cnc32)ncc1-n1cc([C@H]2CC[C@H](CCN3CC[C@H]4[C@@H]3CCN4c3ccc([C@@]4(C)CCC(=O)NC4=O)nc3)CC2)nn1 (single isomer, unassigned) [P-288]
Response: 4.7

Each of the following entries comes with a recorded value; kindly state LVL THP1 HTRF YMIN for each.
1. C[C@H](C#N)Nc1cc(-n2ncc3cc(C#N)c(N)nc32)ncc1C(=O)N[C@H]1CC[C@H](CCN2CCN(c3ccc([C@@]4(C)CCC(=O)NC4=O)cc3)[C@@H](C)C2)CC1
2. CC(C#N)Nc1cc(-n2ncc3cc(C#N)cnc32)ncc1-n1cc(C2CCC(C(F)CN3CCN(c4ccc(C5CCC(=O)NC5=O)cc4)CC3)CC2)nn1 (centres unmarked)
3. C[C@H](C#N)Nc1cc(-n2ncc3cc(C#N)c(N)nc32)ncc1-n1cc([C@H]2CC[C@H](CCN3CCN(c4ccc(C5CCC(=O)NC5=O)cc4)CC3)CC2)nn1 (some centres unmarked) [P-160, TFA]
4. C[C@H](C#N)Nc1cc(-n2ncc3cc(C#N)c(N)nc32)ncc1-n1cc(C2CCC(CCN3CCN(c4ccc(C5CCC(=O)NC5=O)cc4)[C@H](C)C3)CC2)nn1 (some centres unmarked)
5. C[C@H](C#N)Nc1cc(Nc2ncc(C#N)cn2)ncc1-n1cc([C@H]2CC[C@H](CCN3CCN(c4ccc(N5CCC(=O)NC5=O)cc4)[C@H](C)C3)CC2)nn1

Response:
1: 4.1; 2: 1.2; 3: 0.7; 4: 1.; 5: 9.8

Query: # LVL THP1 HTRF YMIN lookup, item C[C@H](C#N)Nc1cc(-n2ncc3cc(C#N)cnc32)ncc1-c1cc(C2CCC(CCN3CCN(c4ccc(C5CCC(=O)NC5=O)cc4)CC3)CC2)on1 (some centres unmarked)
Response: 3.5
